meta.source: paper doi:10.1101/2025.11.13.688260v1

pIC50: −log10 of the molar value.
pIC50 values recorded for UniProt:Q13191
Sequence (Q13191 whole entry): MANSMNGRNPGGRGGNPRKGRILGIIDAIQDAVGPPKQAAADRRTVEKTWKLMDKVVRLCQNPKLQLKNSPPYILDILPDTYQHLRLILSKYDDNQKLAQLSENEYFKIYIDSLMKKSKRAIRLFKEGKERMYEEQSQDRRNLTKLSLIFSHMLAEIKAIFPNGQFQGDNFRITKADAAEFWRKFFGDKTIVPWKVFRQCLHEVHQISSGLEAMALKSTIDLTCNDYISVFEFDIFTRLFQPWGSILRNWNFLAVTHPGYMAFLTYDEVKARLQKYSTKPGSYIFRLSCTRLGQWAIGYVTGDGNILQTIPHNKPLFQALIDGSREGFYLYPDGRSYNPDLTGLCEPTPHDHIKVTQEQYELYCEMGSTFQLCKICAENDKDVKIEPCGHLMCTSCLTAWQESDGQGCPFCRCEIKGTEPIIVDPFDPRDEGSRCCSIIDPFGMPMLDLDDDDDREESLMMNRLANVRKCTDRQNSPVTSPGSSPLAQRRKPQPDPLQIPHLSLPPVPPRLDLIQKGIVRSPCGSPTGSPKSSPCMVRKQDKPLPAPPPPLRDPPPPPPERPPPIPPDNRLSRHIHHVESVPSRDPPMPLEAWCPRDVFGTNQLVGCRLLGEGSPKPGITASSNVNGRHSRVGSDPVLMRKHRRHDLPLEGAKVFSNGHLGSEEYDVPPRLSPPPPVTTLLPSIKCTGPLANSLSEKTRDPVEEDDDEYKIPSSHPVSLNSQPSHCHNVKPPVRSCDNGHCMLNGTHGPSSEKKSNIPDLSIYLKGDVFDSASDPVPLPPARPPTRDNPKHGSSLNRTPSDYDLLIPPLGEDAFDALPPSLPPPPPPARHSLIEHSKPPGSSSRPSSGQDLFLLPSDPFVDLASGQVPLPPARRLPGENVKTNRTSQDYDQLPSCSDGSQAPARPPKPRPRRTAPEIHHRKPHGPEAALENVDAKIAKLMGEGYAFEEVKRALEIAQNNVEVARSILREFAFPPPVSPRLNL
measurement_name: pIC50

C[C@H]1CCCN(Cc2cccc3cc(-c4cccc([C@]5(c6nncn6C)C[C@@H](C)C5)c4)c(=O)[nH]c23)C1	7.77

P = CC(NC1CCCC1)c1ccc(F)c2cc(-c3cccc([C@]4(c5nncn5C)C[C@@H](C)C4)c3)c(=O)[nH]c12 (stereo partly drawn)
Q = Cn1cnnc1[C@]1(c2cccc(-c3cc4ccccc4[nH]c3=O)c2)C[C@H](C)C1
Quick one: lower pIC50, P or Q ? Lab note: record the label of whichever item you select.
Q
(Q: 5.92, P: 7.71)
